Molecular target: BmDop2R2 (Bombyx mori, UniProt A0A2D1QSC3)
Construct: full-length ORF (536 residues printed; 1596 bp ORF, which would give about 531; 7 TM) in pcDNA3.1(+), HindIII/NotI, transfected HEK-293 cells; no tag mentioned; chromosome 18, nscaf 2901; tandem paralogue of BmDop2R1 (440 residues, lacks TM I-II)
Sequence (A0A2D1QSC3 1-536): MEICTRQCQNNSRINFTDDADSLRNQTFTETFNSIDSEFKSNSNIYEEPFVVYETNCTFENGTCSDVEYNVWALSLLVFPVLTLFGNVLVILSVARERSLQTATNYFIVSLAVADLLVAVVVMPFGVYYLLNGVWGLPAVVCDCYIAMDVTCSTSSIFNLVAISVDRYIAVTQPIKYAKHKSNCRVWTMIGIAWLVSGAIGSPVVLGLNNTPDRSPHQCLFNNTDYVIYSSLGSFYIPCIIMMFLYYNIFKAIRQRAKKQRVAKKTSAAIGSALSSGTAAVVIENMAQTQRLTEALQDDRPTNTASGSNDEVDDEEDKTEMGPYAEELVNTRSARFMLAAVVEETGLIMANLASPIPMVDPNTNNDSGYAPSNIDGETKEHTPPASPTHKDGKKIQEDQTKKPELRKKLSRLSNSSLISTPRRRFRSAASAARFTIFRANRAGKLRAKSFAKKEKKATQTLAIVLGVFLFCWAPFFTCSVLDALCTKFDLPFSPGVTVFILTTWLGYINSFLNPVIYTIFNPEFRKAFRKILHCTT
Assay: cAMP ELISA in transfected HEK-293 cells (inhibition of forskolin-stimulated cAMP)
assayMetric: EC50 (nM)
Just the number in nM, nothing appended.

IN: Quick check: EC50 of NCCc1ccc(O)c(O)c1 ?
OUT: 657
